# MEASUREMENT_NOTES: activators of glucose-dependent insulin secretion, dose response, cell-based, INS-1E, Gaussia luciferase, luminescence, cherry-pick, set 2 (AID 977607);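 also: 0% = median of the plate neutral control wells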
# CONDITION_SET: INS-1E GLuc insulin secretion reporter, 2-3 h, hits give high values; at 35 µM, 100% = signal doubled over neutral wells unless noted
In all, about 1,500 compounds went through this assay and about 460 (31%) were called active. Another 1% or so got no clear call; they are omitted. These entries were drawn from the full list. Potency and affinity values are given separately.
A collection of compounds and their measured max activation

Q: What measured max activation goes with `Cc1ccc(C)c(OCC(=O)Nc2cc(NC(=O)COc3cc(C)ccc3C)cc(C(=O)O)c2)c1` ?
Result: -27.7% (inactive)

Q: Consider the compound shown here: `CC(C)Cc1nc2n[nH]c(N)c2c2c1COC(C)(C)C2` What is its recorded max activation?
Result: 33.4% (inactive)

Q: Return reported max activation; argument: `O=c1[nH]nc(-c2cccs2)c2ccccc12`
Result: 31.3% (inactive)

Q: Quick one: max activation of `CS(=O)(=O)N1CCN(c2ccccc2NC(=O)c2ccco2)CC1` ?
Result: 22.3% (inactive)

Next:
Q: I have this compound here, `Cc1ccc(S(=O)(=O)/N=C(/Nc2cccc(O)c2)c2ccccc2)cc1` , and I need its recorded max activation.
Result: 48.6% (inactive)

Q: Recorded max activation of COc1ccc(C2N(c3ccccc3)C(=O)C2(F)F)cc1OC (configuration not stated) , please.
Result: -13.7% (inactive)

Q: Query: max activation; subject: `COc1ccc(CCNS(=O)(=O)c2ccc(Cl)s2)cc1OC`
Result: 28.1% (inactive)

Q: Please report the recorded max activation for `O=C(Nc1ccccc1N1CCOCC1)C1=NN(c2ccccc2)C(=O)CC1` .
Result: 16.2% (inactive)

Q: # lookup: max activation of `CCN(Cc1ccccc1)S(=O)(=O)c1ccccc1Br`
Result: -30.7% (inactive)

* * *

# MEASUREMENT_NOTES: activators of glucose-dependent insulin secretion, dose response, cell-based, INS-1E, Gaussia luciferase, luminescence, cherry-pick, set 2 (AID 977607);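 also: 0% = median of the plate neutral control wells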
# CONDITION_SET: INS-1E GLuc insulin secretion reporter, 2-3 h, hits give high values; at 35 µM, 100% = signal doubled over neutral wells unless noted
The campaign covered roughly 1,500 compounds. About 460 (31%) were called active. Inconclusive results (about 1%) are left out. These entries were drawn from the full list. Results with a measured potency or affinity are listed apart.
QUANTITY_NAME: max activation

Q: Consider the molecule shown here: CC1(c2ccc(OC(F)F)cc2)NC(=O)N(CC(=O)Nc2cccc(S(N)(=O)=O)c2)C1=O (stereo unspecified) What is its recorded max activation?
Result: -16.7% (inactive)

* * *

# MEASUREMENT_NOTES: activators of glucose-dependent insulin secretion, dose response, cell-based, INS-1E, Gaussia luciferase, luminescence, cherry-pick, set 2 (AID 977607);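 also: 0% = median of the plate neutral control wells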
# CONDITION_SET: INS-1E GLuc insulin secretion reporter, 2-3 h, hits give high values; at 35 µM, 100% = signal doubled over neutral wells unless noted
Among all 1,500 compounds or so, about 460 (31%) were called active. Inconclusive results (about 1%) are left out. A selection follows. Potency and affinity values are given separately.
QUANTITY_NAME: max activation

Guide cases for max activation, answers given:
Q: Which max activation value belongs to `COc1ccc(CCN(C)C(=O)Cn2c(=O)oc3ccccc32)cc1OC` ?
Result: -16.4% (inactive)

Q: Endpoint output: max activation of `Cc1ccc2nc(N/N=C/c3ccccc3C#N)nc(-c3ccccc3)c2c1` . Value?
Result: -36.1% (inactive)

Further cases:
Q: Endpoint output: max activation of `CN1CCC(N(C)S(=O)(=O)c2ccc(NC(=O)COc3cccc(Cl)c3)cc2)CC1` . Value?
Result: -15.6% (inactive)

Q: Fill in: max activation of CC1=NN(C(N)=S)C(=O)C1N=Nc1ccccc1C (stereo not drawn) is ___
Result: -15.4% (inactive)

Q: Which value of max activation has been reported for `COc1ccc2oc(-c3ccncc3)cc(=O)c2c1` in the records?
Result: 16.4% (inactive)

Q: Item `Cc1nn(-c2ccccc2)c2nc(C(F)F)cc(C(F)F)c12` has what recorded max activation?
Result: 13.6% (inactive)

Q: I am curious: what max activation value has been reported for `COc1ccc(C(=O)NCC(=O)OCC(=O)NC2CCCCCC2)cc1OC` ?
Result: 19.5% (inactive)

Q: max activation lookup needed for `COc1ccc(-c2cc(C(F)(F)F)n3nc(C(=O)O)cc3n2)cc1OC` , thanks.
Result: 13.4% (inactive)
